- Assay system: Rvs167, P39743
- Sequence (P39743 419-482): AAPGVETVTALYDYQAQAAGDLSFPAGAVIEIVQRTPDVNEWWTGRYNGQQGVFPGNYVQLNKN
- Procedure details: SPOT array
- Condition info: median of control spots 2707
So basically: is SPOT intensity under 3? Then 1 (yes). Not under? Then 0 (no).

VTHRLRISIPGITGR :: 1 (yes)
KNRKNLPTIPIRLSG :: 0 (no)
VPPPMQPPPIESSNL :: 1 (yes)
RSKRLFPVRPMATAH :: 0 (no)
FYHRPAPKPPVTKKV :: 1 (yes)

Is it true that SPOT intensity reported for YHSRRHPLALGFKYV is less than 3?
1 (yes)

Here is the next binder: TKIRRRPQQPLTDFT
1 (yes)

Same lookup for NFKRLLPRDPSEKSS , please.
1 (yes)

Try this binder next: MTKTPETSPPKRPMG
1 (yes)

Another binder to check: TEVPIPRRPPPPQAA
1 (yes)

Cool, now APKHAPPPVPNETDN
1 (yes)

Try this binder next: SLSRRRFSLPSMPNV
0 (no)

Param item: LLGRKRPVMERVVDI
0 (no)

And then SGVRLPAPPPPPRRG , what is it?
0 (no)

// query: PVLPPPRSPNRPTLS
0 (no)

Note, next up: NNFYRPLLRSVLVLL
1 (yes)

Let us now turn to SAPDIPPRSPNRNAH
0 (no)

Try this binder next: APERAVPILPPRNNV
0 (no)

Try this binder next: MSPLGAPPPPPHKDH
1 (yes)

Further, for RVRKTHVPASKRPSG ?
1 (yes)

Lookup FTLPPPPPPPGLDEL
1 (yes)

Request: QHQQRQPKRPKRYSL
1 (yes)
